Values compiled from patent US6444617B1.

- Tested on: soybean plant (So)
- assay-remarks: Test Example 3: phytotoxicity to upland crop plants, treatment before emergence
- Assay type: in vivo
- recorded-conditions: dosage 5 kg/ha
- Procedure: Herbicidal Effect on Upland Weeds Before Emergence […] Then, a liquid preparation of an agent comprising a prescribed concentration of a compound of the present invention (the compounds listed in Tables 1-14) as active ingredient was sprayed. Fourteen days after the treatment, the herbicidal effect was investigated, from which weed-killing rate was calculated in the same manner as in Test Example 1, and the herbicidal effect was judged. […]
Each entry below lists one item and its recorded Phytotoxicity So value.

Observe how each entry below is paired with its result.
CCc1ccc(Cl)c(CC)c1NC(=O)c1cc2ccccc2nc1C(=O)NC(C)(C)C: 2 (Crop-killing rate is 40-69%.)
CCNC(=O)c1nc2occc2cc1C(=O)Nc1c(CC)ccc(Cl)c1CC: 4 (Crop-killing rate is 90-99%.)
CCNC(=O)c1nc2ccccc2cc1C(=O)Nc1c(CC)ccc(Cl)c1CC: 1 (Crop-killing rate is 1-39%.)

Query compound follows.
Tell me reported Phytotoxicity So for CCCNC(=O)c1nc2ccoc2cc1C(=O)Nc1c(CC)ccc(Cl)c1CC , tested with soybean plant (So). 4 (Crop-killing rate is 90-99%.)

----------
- Test system: soybean plant
- assay-remarks: Test Example 4: phytotoxicity to upland crop plants, treatment after emergence
- Format: in vivo
- recorded-conditions: dosage 5 kg/ha, sprayed after emergence, judged 14 days after treatment
assay-metric: Phytotoxicity So

Value lookup for Phytotoxicity So; key = CCCNC(=O)c1nc2c(cnn2C)cc1C(=O)Nc1c(CC)ccc(Cl)c1CC [compound 1088] 5 (Crop-killing rate is 100%.)

Value lookup for Phytotoxicity So; key = CCCNC(=O)c1nc2cc(OC)c(OC)cc2cc1C(=O)Nc1c(CC)ccc(Cl)c1CC [compound 305] 1 (Crop-killing rate is 1-39%.)

Value lookup for Phytotoxicity So; key = Cc1c(Cl)cccc1NC(=O)c1cc2sccc2nc1C(=O)NC1CCCC1 [compound 892] 3 (Crop-killing rate is 70-89%.)

Value lookup for Phytotoxicity So; key = CCc1ccc(Cl)c(CC)c1NC(=O)c1cc2c(nc1C(=O)NC1CCCC1)OCCC2 [compound 423] 4 (Crop-killing rate is 90-99%.)

Value lookup for Phytotoxicity So; key = Cc1c(Cl)cccc1NC(=O)c1cc2ccsc2nc1C(=O)NC1CCCC1 [compound 811] 4 (Crop-killing rate is 90-99%.)

Value lookup for Phytotoxicity So; key = CCCNC(=O)c1nc2cc3c(cc2cc1C(=O)Nc1c(CC)ccc(Cl)c1CC)OCO3 [compound 334] 1 (Crop-killing rate is 1-39%.)

Value lookup for Phytotoxicity So; key = CCNC(=O)c1nc2sccc2cc1C(=O)Nc1c(CC)ccc(Cl)c1CC [compound 798] 4 (Crop-killing rate is 90-99%.)

Value lookup for Phytotoxicity So; key = CCNC(=O)c1nc2ccsc2cc1C(=O)Nc1c(CC)ccc(Cl)c1CC [compound 870] 3 (Crop-killing rate is 70-89%.)

----------
- System: wheat
- assay-remarks: Test Example 4: phytotoxicity to upland crop plants, treatment after emergence
- Format: in vivo
- recorded-conditions: dosage 5 kg/ha, sprayed after emergence, judged 14 days after treatment
assay-metric: Phytotoxicity Wh

Observe how each entry below is paired with its result.
CCNC(=O)c1nc2ccn(OC)c2cc1C(=O)Nc1c(CC)ccc(Cl)c1CC [compound 894]: 5 (Crop-killing rate is 100%.)
CCCNC(=O)c1nc2c(cc1C(=O)Nc1c(CC)ccc(Cl)c1CC)CCCO2 [compound 414]: 5 (Crop-killing rate is 100%.)
CCCNC(=O)c1nc2c(cc1C(=O)Nc1c(CC)ccc(Cl)c1CC)c(C)nn2C [compound 1112]: 5 (Crop-killing rate is 100%.)
CCc1ccc(Cl)c(CC)c1NC(=O)c1cc2cc(OC)ccc2nc1C(=O)NOC(C)C [compound 291]: 2 (Crop-killing rate is 40-69%.)
CCc1ccc(Cl)c(CC)c1NC(=O)c1cc2c(nc1C(=O)NC1CCCC1)COCC2 [compound 447]: 5 (Crop-killing rate is 100%.)

Tell me reported Phytotoxicity Wh for Cc1c(Cl)cccc1NC(=O)c1cc2ccoc2nc1C(=O)NC1CCCC1 [compound 796] , tested with wheat. 4 (Crop-killing rate is 90-99%.)

Tell me reported Phytotoxicity Wh for Cc1c(Cl)cccc1NC(=O)c1cc2c(C)noc2nc1C(=O)NC1CCCC1 [compound 1085] , tested with wheat. 5 (Crop-killing rate is 100%.)

Tell me reported Phytotoxicity Wh for CCCNC(=O)c1nc2c(cc1C(=O)Nc1c(CC)ccc(Cl)c1CC)OCCC2 [compound 486] , tested with wheat. 4 (Crop-killing rate is 90-99%.)

Tell me reported Phytotoxicity Wh for CCCNC(=O)c1nc2c(cnn2C)cc1C(=O)Nc1c(CC)ccc(Cl)c1CC [compound 1088] , tested with wheat. 5 (Crop-killing rate is 100%.)

Tell me reported Phytotoxicity Wh for CCc1ccc(Cl)c(CC)c1NC(=O)c1nc2ccccc2nc1C(=O)NCC(C)C [compound 1311] , tested with wheat. 5 (Crop-killing rate is 100%.)

Tell me reported Phytotoxicity Wh for CCNC(=O)c1nc2ccccc2nc1C(=O)Nc1c(CC)ccc(Cl)c1CC [compound 1305] , tested with wheat. 5 (Crop-killing rate is 100%.)

Tell me reported Phytotoxicity Wh for CCc1ccc(Cl)c(CC)c1NC(=O)c1cc2c(nc1C(=O)NC1CCCC1)OCCC2 [compound 423] , tested with wheat. 5 (Crop-killing rate is 100%.)

Tell me reported Phytotoxicity Wh for CCCNC(=O)c1nc2nc(C)n(C)c2cc1C(=O)Nc1c(CC)ccc(Cl)c1CC [compound 1233] , tested with wheat. 5 (Crop-killing rate is 100%.)

Tell me reported Phytotoxicity Wh for Cc1c(Cl)cccc1NC(=O)c1nc2ccccc2nc1C(=O)NC1CCCC1 [compound 1327] , tested with wheat. 4 (Crop-killing rate is 90-99%.)

Tell me reported Phytotoxicity Wh for CCCNC(=O)c1nc2cc(OC)c(OC)cc2cc1C(=O)Nc1c(CC)ccc(Cl)c1CC [compound 305] , tested with wheat. 2 (Crop-killing rate is 40-69%.)

Tell me reported Phytotoxicity Wh for CCCNC(=O)c1nc2cnn(C)c2cc1C(=O)Nc1c(CC)ccc(Cl)c1CC [compound 1173] , tested with wheat. 5 (Crop-killing rate is 100%.)
